- System: Proteus vulgaris HX 19
- PROTOCOL_TEXT: Minimum Inhibitory Concentration, Proteus vulgaris HX 19
- Assay type: cell-based
- CONDITION_CONTEXT: HX19; Proteus vulgaris HX 19; read-out: Minimum Inhibitory Concentration
ASSAY_ENDPOINT: MIC

Any idea what MIC was measured for CC(=O)OCC1=C(C(=O)O)N2C(=O)C(NC(=O)[C@H](NC(=O)c3cnc(O)nc3O)c3ccc(O)cc3)C2SC1 (stereo partly drawn) [Example 119] ?
0.39 µg/mL

What measured MIC goes with Cn1nnnc1SCC1=C(C(=O)O)N2C(=O)[C@@H](NC(=O)[C@H](NC(=O)c3cnccc3O)c3ccc(NC(N)=O)cc3)[C@H]2SC1 [Example 13] ?
0.2 µg/mL

Would you kindly share the measured MIC for Cn1nnnc1SCC1=C(C(=O)O)N2C(=O)C(NC(=O)C(NC(=O)c3cnccc3O)c3ccc(CO)cc3)C2SC1 (stereo not drawn) [Example 91] ?
0.39 µg/mL

Consider the molecule shown here: O=C(O)C1=C(CSc2nncs2)CSC2C(NC(=O)C(NC(=O)c3cncnc3O)c3ccc(CO)cc3)C(=O)N12 (stereo not drawn) [Example 95] What is its recorded MIC?
0.78 µg/mL

Recorded MIC of O=C(O)C1=C(CSc2ccc(O)nn2)CSC2C(NC(=O)C(NC(=O)c3cnccc3O)c3ccc(CO)cc3)C(=O)N12 (stereo not drawn) [Example 111] , please.
0.39 µg/mL

Reported MIC for COc1ccc2ncc(C(=O)NC(C(=O)NC3C(=O)N4C(C(=O)O)=C(CSc5nnnn5C)CSC34)c3cccc(O)c3)c(O)c2n1 (stereo not drawn) [Example 164] : what is it?
0.2 µg/mL

Recorded values, source patent US4156724A.
